Source: PubChem BioAssay (NCATS)

test: A2780 Cisplatin Sensitive Ovarian Cancer Cell Toxicity qHTS against the NCATS CANVASS Library (AID 1347353); conditions: A2780 ovarian cancer viability, ATPLite luminescence, 72 h; series mostly up to 46.1 µM; further: nearly all actives have a fitted effect of over 60% in size
Results filed as inconclusive are left out. Calls of active or inactive are those of the source. The call rests on the fitted dose curve; in most records, active means well fitted cell-killing curve with a large enough effect; inconclusive means small, poorly fitted or top-dose-only effect; inactive means flat fitted curve, though single readings scatter.
Labels: 1 for active, 0 for inactive

INSERT INTO measurements (molecule, cat) VALUES
  ('O=C(OC[C@H]1O[C@@H](OC(=O)c2cc(O)c(O)c(O)c2)[C@H](OC(=O)c2cc(O)c(O)c(O)c2)[C@@H](OC(=O)c2cc(O)c(O)c(O)c2)[C@@H]1OC(=O)c1cc(O)c(O)c(O)c1)c1cc(O)c(O)c(O)c1', 1),
  ('CC[C@H]1[C@H](C)[C@H](c2cc(OC)c(OC)cc2OC)[C@@H](C)[C@H](c2cc(OC)c(OC)cc2OC)[C@@]12C=C(OC)C(=O)C=C2OC', 1),
  ('CC(CCC[C@]1(C)C(=O)C=C[C@@]23C[C@]4(C)O[C@@H](C[C@@H]4[C@H]2O)C31)C(=O)O (some centres not stated)', 0),
  ('C=CC(C)(C)C(=O)[C@@H](C)[C@@H]1CC[C@@](C)(C=C)O1', 0),
  ('C[C@H](CCC(O)C(C)(O)CO)[C@@]1(O)CC[C@@]2(C)C3=C(CC[C@@]21C)[C@@]1(C)CCC(OC(=O)CCC(=O)O)C(C)(C)[C@@H]1CC3 (some centres not stated)', 0),
  ('C[C@@H]1CC[C@]2(C(=O)O)CC[C@]3(C)C(=C2[C@H]1C)CC[C@@H]1[C@@]2(C)CC[C@H](O)C(C)(C)[C@@H]2CC[C@]13C', 0),
  ('C=C[C@@](C)(O)CC[C@@H]1[C@@]2(C)CCCC(C)(C)[C@@H]2CC[C@@]1(C)O', 0);

----------
This section presents molecules with their documented Z-AUC values.
assay: qHTS drug screen for cell cycle checkpoint inhibitors in PARPi-resistant BRCA-mutant ovarian cancer cell lines. (AID 1963452); details: PEO1/OlaR viability, CellTiter-Glo luminescence, 96 h; measured here: PEO4 Z-AUC; stronger effect = lower value
measured parameter: Z-AUC

INSERT INTO assay_data (molecule, numeric_value) VALUES
  ('Cc1ccc(NC(=O)[C@H]2CCCN(C(=O)c3c(C)cccc3F)[C@H]2c2ccc(NC3CCCC3)cc2)cc1C(F)(F)F', -0.339),
  ('CCC1CCCCN1C(=O)n1ncc(C(O)(c2ccccc2)c2ccccc2)n1 (stereo unspecified)', 0.409),
  ('Cc1nc2cccc(N)c2c(=O)n1C1CCC(=O)NC1=O (stereo unspecified)', 1.38),
  ('C=CC(=O)N1CCC(C2CCNc3c(C(N)=O)c(-c4ccc(Oc5ccccc5)cc4)nn32)CC1 (stereo unspecified)', -0.000619),
  ('CCOc1cc(/C=C2/C(=O)N(c3ccccc3)N=C2C)cc(Cl)c1OCC(=O)OC', 0.891),
  ('O=C(O)c1ccccc1-c1ccc(/C=c2\sc3nc4cc(Br)cnc4n3c2=O)o1', -0.895),
  ('C[C@@]1(c2ncncc2F)NC(=O)c2cc(-c3cn[nH]c3)ccc21', -0.372),
  ('COc1cc(=C2C=c3ccccc3=N2)[nH]/c1=C/c1[nH]c(C)cc1C', 1.02),
  ('CCCNC(=O)c1cn2ncnc(Nc3cc(C(=O)NC4CC4)ccc3C)c2c1C', 0.239),
  ('CCn1c(=O)c2c(nc(/C=C/c3ccc(OC)c(OC)c3)n2C)n(CC)c1=O', 0.882),
  ('C=C1C[C@@H]2CC[C@@]34C[C@H]5O[C@H]6[C@@H](O3)[C@H]3O[C@H](CC[C@@H]3O[C@H]6[C@H]5O4)CC(=O)C[C@@H]3[C@@H](OC)[C@@H](C[C@H](O)CN)O[C@H]3C[C@H]3O[C@@H](CC[C@@H]1O2)C[C@@H](C)C3=C', -2.65),
  ('CC[C@@H](Oc1cccc(CN(CCCOc2ccc(OC)cc2)c2nc3ccccc3o2)c1)C(=O)O', 0.341),
  ('N#C/C(=C1/Nc2ccccc2S1)c1ccnc(OCc2ccc(CN3CCOCC3)cc2)n1', -0.057),
  ('Cc1c[nH]c2nc(Nc3ccc(N4CCN(C)CC4)c(F)c3)nc(-c3cccc(CC#N)c3)c12', -0.115),
  ('CN(C(=O)CNC(=O)/C=C/c1cccc(Cl)c1)C1CCS(=O)(=O)CC1', -0.957),
  ('NC1=N[C@@]2(c3cc(NC(=O)c4ccc(F)cn4)ccc3F)COC[C@H]2CS1', 0.598);

----------
This section presents molecules with their documented max response values.
assay: qHTS Assay for Lipid Storage Modulators (AID 1519); settings: Drosophila S3 cells, BODIPY lipid droplet/cell ratio, laser cytometry; measured here: cell count channel max response; cells loaded with oleic acid
Records with an inconclusive call do not appear.
measured parameter: max response (%)

INSERT INTO assay_data (chem_smiles, numeric_value) VALUES
  ('O=C(c1cccc(F)c1)N1CCC2(CC1)CN(c1cccc(-c3ccccc3)c1)C2', -4.49),
  ('COc1ccc(CNc2cc(-c3ccoc3)ncn2)c(OC)c1', 31.5),
  ('COc1ccc(C(=O)N2CCC[C@@]3(CCN(C(=O)Nc4ccccc4)C3)C2)cc1', 8.67),
  ('Cc1nc2cncnc2n(Cc2ccccc2)c1=O', 12.6),
  ('O=C(c1cccc(F)c1)N1CCC2(CC1)CCN(c1cccc(-c3ccccc3)c1)CC2', -11.6),
  ('Cn1c(=O)c(-c2cc(F)cc(F)c2)nc2cnc(N3CCOCC3)nc21', 16.8),
  ('CN(C)Cc1ccccc1-c1nc(NC2CCNCC2)c2ccccc2n1', 8.01),
  ('CN(Cc1ccco1)c1ncnc2ccc(-c3ccccc3C(F)(F)F)cc12', 20.9),
  ('FC(F)(F)c1ccccc1-c1cc(NCc2ccccc2)ncn1', 14.8),
  ('O=C(Nc1ccccc1)N1CC2(CCN(C(=O)c3cccc(F)c3)CC2)C1', 9.88),
  ('N#Cc1cccc(-c2nc3cnc(Oc4cccc(Cl)c4)nc3n(C3CC3)c2=O)c1', 11);

----------
target: Cytochrome P450 1A2 (Homo sapiens); assay: p450-cyp1a2 (AID 410); settings: recombinant CYP1A2, luciferin-ME demethylation, luminescence; series mostly up to 57 µM; further: potency means the concentration at half of the fitted maximal effect
Records with an inconclusive call do not appear. Activity calls are given as the source filed them. Calls follow the shape of the full dose curve.
measured parameter: Potency

INSERT INTO results (chem_smiles, result) VALUES
  ('COc1ccc(NC(=O)N2CCCC3(CCN(C(=O)c4cnccn4)CC3)C2)cc1', 'inactive'),
  ('COc1ccc(NC(=O)N2CCCC3(CCN(S(C)(=O)=O)CC3)C2)cc1', 'inactive'),
  ('Cn1cccc1C(=O)N1CCC2(CC1)CCN(c1ccc(-c3ccccc3)cc1)CC2', '20 µM (active)'),
  ('Cc1nc2cncnc2n(Cc2ccccc2)c1=O', '12.6 µM (active)'),
  ('COCCNc1cc(-c2c(C)noc2C)ncn1', '10 µM (active)'),
  ('Cc1cnc(CNc2ccnc(-c3ccccc3Cl)n2)cn1', '12.6 µM (active)'),
  ('c1ccc(-c2ccc(N3CC4(CCNCC4)C3)cc2)cc1', '15.8 µM (active)'),
  ('Cc1ccccc1-c1nccc(NCCN2CCOCC2)n1', '5.01 µM (active)'),
  ('O=C(c1csnn1)N1CCC2(CC1)CN(c1ccncc1)C2', 'inactive'),
  ('Cc1nc2cncnc2n(C2CC2)c1=O', '15.8 µM (active)'),
  ('O=C(c1ccco1)N1CCC[C@@]2(CCN(c3ccncc3)C2)C1', '12.6 µM (active)'),
  ('Cc1cccc(CNc2ncncc2-c2cccc(C#N)c2)c1', '2.51 µM (active)'),
  ('Cn1c(=O)c(-c2cccc(C#N)c2)nc2cnc(Oc3ccccc3)nc21', '1.58 µM (active)'),
  ('COc1ccccc1CNc1ncncc1-c1ccoc1', '1.26 µM (active)');

----------
Molecular target: Dual specificity protein kinase CLK4 (Homo sapiens) (UniProt Q9HAZ1)
Sequence (Q9HAZ1 whole entry, looked up): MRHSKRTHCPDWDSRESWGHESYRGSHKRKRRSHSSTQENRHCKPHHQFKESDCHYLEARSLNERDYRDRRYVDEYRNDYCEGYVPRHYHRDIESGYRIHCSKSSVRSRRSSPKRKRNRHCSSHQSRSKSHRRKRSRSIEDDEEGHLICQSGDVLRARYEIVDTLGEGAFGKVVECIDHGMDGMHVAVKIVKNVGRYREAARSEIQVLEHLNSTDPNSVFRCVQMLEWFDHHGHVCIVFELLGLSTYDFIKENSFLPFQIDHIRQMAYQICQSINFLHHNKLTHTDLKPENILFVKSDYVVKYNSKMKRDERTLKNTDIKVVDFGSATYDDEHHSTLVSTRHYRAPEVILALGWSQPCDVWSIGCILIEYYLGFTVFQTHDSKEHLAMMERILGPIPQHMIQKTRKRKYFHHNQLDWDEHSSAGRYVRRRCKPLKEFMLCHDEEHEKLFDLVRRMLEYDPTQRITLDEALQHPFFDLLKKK
Assay: qHTS Assay for Inhibitors of CDC-like Kinase 4 (ADP-Glo Assay) (AID 1771); further: nearly all actives have a fitted effect of over 70% in size
Details: recombinant CLK4, ADP-Glo luminescence; series mostly up to 80 µM
Source text: NIH Molecular Libraries Probe Production Centers Network [MLPCN] NIH Chemical Genomics Center [NCGC] […] In the assay, the ADP levels were detected using Promega ADP-Glo technology wherein the remaining ATP from the kinase reaction is first depleted with an ATPase reagent followed by a reagent that contains and enzyme which converts the ADP produced to ATP as well as Ultra-Glo luciferase and D-luciferin which generates a bioluminescence signal from the ATP. […]
Records with an inconclusive call do not appear. Calls of active or inactive are those of the source. The call rests on the fitted dose curve; in most records, active means well fitted inhibition curve with a large enough effect; inconclusive means small, poorly fitted or top-dose-only effect; inactive means flat fitted curve, though single readings scatter.
Labels: Y = active, N = inactive

INSERT INTO assay_data (chem_smiles, cat) VALUES
  ('Cc1noc(C)c1-c1cc(NCc2cccnc2)ncn1', 'Y'),
  ('CN1CCN(c2ncc3nc(-c4cc(F)cc(F)c4)c(=O)n(Cc4cccs4)c3n2)CC1', 'N'),
  ('COc1ccc(CNc2ncnc3ccc(-c4cccnc4)cc23)c(OC)c1', 'Y');
